# credit: patent US20240391954A1

Experiment: Pharmacokinetics: plasma and brain concentration after IP injection
Format: in vivo, mouse
Details: female, CD-1, mouse; mice, IP 15 mg/kg, 24 h, plasma, mean of 3; read-out: Plasma concentration, Mean
metric: level at 24 h

// field: level at 24 h; key: CC(=O)N[C@@H](CCCN=C(N)N)C(=O)N[C@H]1CSSC[C@H](C(N)=O)NC(=O)[C@H](Cc2c[nH]c3ccccc23)NC(=O)C(CCCN=C(N)N)NC(=O)[C@@H](Cc2ccccc2)NC(=O)[C@H](Cc2cnc[nH]2)NC(=O)[C@@H](C)NC1=O (stereo partly shown) [CTX-1200, reference compound] ; value = 8.07 ng/mL
